# experiment: solvent given as SMILES
# conditionsUsed: in CN(C)C=O
endpointLabel: absorption maximum (nm)
One number for each entry, in nm.

Count: 4. Required value per item: absorption maximum.
1. CCCCOC(=O)c1ccccc1-c1c2ccc(=[N+](CC)CC)cc-2oc2cc(N(CC)CC)ccc12
2. COc1ccc(-c2cc(C)nc(-c3ccc(-n4c5ccccc5c5ccccc54)cc3)n2)cc1
3. COc1cc(/C=C/c2nc3ccccc3s2)c(OC)cc1/C=C/c1ccncc1
4. Cc1ccc2nc(-c3cccc4nc(C)[nH]c(=O)c34)[nH]c2c1

1. 562
2. 340
3. 416
4. 322

Need absorption maximum of `Cc1ccc(C(=O)/C=C2\C(=O)Nc3ccccc32)cc1C` , thanks.
338
